# target.or.system: Substance-P receptor (Homo sapiens, UniProt P25103)
# Sequence (P25103 whole entry): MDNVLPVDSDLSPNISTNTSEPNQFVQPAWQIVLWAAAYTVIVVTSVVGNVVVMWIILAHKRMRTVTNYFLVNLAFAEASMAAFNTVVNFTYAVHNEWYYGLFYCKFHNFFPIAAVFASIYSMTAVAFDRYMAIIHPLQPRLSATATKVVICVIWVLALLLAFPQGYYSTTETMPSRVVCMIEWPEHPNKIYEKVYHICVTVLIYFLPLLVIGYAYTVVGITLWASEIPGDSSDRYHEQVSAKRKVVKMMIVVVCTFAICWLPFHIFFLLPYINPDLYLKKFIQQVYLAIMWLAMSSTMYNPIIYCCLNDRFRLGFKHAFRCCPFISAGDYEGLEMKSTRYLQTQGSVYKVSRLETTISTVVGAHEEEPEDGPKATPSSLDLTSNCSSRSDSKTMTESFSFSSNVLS
attribute.measured: Ki (nM)

structure.as.smiles	value
COc1ccc(C(=O)c2ccccc2)cc1CN[C@H]1CCCN[C@H]1c1ccccc1	0.398

Value source: ChEMBL document CHEMBL1128627
